Biological target: ATP-dependent translocase ABCB1 (Homo sapiens)
Sequence (P08183 whole entry): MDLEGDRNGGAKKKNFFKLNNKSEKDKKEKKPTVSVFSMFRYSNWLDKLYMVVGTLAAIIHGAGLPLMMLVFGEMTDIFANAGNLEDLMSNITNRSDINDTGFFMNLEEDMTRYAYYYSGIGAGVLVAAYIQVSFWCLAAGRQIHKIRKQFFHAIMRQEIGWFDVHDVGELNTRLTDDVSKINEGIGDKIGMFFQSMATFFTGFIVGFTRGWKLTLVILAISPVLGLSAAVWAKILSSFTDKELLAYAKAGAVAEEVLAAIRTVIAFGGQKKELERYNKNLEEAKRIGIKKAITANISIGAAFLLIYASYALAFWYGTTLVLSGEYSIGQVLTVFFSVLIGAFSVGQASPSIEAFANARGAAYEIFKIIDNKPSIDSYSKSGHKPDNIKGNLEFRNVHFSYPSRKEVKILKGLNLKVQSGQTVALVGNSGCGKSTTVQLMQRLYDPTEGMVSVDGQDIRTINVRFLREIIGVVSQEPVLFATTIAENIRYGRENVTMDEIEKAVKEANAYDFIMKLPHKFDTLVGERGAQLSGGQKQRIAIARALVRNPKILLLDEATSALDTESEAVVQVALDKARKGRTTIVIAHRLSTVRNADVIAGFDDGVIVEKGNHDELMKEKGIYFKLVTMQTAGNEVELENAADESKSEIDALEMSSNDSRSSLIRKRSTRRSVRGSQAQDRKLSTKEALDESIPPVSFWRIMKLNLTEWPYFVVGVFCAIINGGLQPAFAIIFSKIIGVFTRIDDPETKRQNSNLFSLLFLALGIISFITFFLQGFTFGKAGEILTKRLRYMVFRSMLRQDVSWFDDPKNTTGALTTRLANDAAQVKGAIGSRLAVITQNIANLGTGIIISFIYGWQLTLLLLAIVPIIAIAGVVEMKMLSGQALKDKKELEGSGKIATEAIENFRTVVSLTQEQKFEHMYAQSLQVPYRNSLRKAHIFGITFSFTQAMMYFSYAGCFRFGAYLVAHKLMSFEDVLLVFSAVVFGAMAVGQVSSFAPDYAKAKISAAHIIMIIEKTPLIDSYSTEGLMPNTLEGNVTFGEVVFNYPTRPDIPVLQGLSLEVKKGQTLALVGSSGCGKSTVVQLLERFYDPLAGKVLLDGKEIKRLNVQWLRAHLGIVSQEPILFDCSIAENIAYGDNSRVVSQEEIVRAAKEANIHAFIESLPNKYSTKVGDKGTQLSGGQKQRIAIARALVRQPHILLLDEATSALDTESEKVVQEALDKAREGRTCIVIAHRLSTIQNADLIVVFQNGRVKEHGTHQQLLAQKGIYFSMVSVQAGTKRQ
Test: TP_TRANSPORTER: Daunomycin accumulation in Caco-2 cells
Format: functional, cell-based
Readout type: Activity

Recorded results for 5 compounds are shown here.
>>> df
                                   compound               test_value
0  CC/C=C/C/C=C/C/C=C/CCCCCCCC(=O)OCC(O)CO (centres undefined)            inhibitor [+]
1  CCCCCCCCCCCCCCCC(=O)OCC(CO)OC(=O)CCCCCCCCCCCCCCC (centres undefined)  is not an inhibitor [-]
2  CCCCCCCCCCCCCC(=O)OCC(O)CO (centres undefined)            inhibitor [+]
3  CCCCCCCCCC(=O)OCC(O)CO (centres undefined)            inhibitor [+]
4  CCCCCCCC(=O)OCC(O)CO (centres undefined)            inhibitor [+]

Q: Entry under review: CCCCCCCCCCCCCCCC(=O)OCC(O)COC(=O)CCCCCCCCCCCCCCC . Reported Activity?
Result: is not an inhibitor [-]

Q: Entry under review: CCCCC/C=C/C/C=C/CCCCCCCC(=O)OCC(O)CO (centres undefined) . Reported Activity?
Result: inhibitor [+]

Q: Entry under review: CCCCCCCCCCCC(=O)OCC(O)CO (centres undefined) [GLYCEROL MONOLAURATE] . Reported Activity?
Result: inhibitor [+]

Q: Entry under review: CCCCCCCCCCCCCCCC(=O)OCC(COC(=O)CCCCCCCCCCCCCCC)OC(=O)CCCCCCCCCCCCCCC . Reported Activity?
Result: is not an inhibitor [-]

Data origin: ChEMBL document CHEMBL2074473
